# TARGET SYSTEM: HLA-B*58:01
# TEST DETAILS: IEDB peptide-MHC binding, purified MHC/competitive/radioactivity; filed as Kd, often an IC50 or EC50 that approximates it; bounds were set here for any values at or beyond the usual limits of such assays
# RUN PARAMETERS: source organism: Dengue virus 3 Sri Lanka/1266/2000
OBSERVABLE: Kd (nM)
Could you give me the number in nM? Just the number is fine.

Request: Reported Kd, sequence `MEITAEWLW` : ____
Result: 5.39

---

# TARGET SYSTEM: HLA-B*35:01
# TEST DETAILS: IEDB peptide-MHC binding, purified MHC/direct/fluorescence; filed as Kd, often an IC50 or EC50 that approximates it; bounds were set here for any values at or beyond the usual limits of such assays
# RUN PARAMETERS: source organism: Salmonella enterica subsp. enterica serovar Typhi
OBSERVABLE: pKd
The value called pKd is obtained by taking minus log10 of the concentration in mol/L.

Request: Query for HLA-B*35:01: what pKd does the record show for `VPQTDAGVT` ?
Result: 6.05

---

# TARGET SYSTEM: HLA-A*24:03
# TEST DETAILS: IEDB peptide-MHC binding, purified MHC/direct/fluorescence; filed as Kd, often an IC50 or EC50 that approximates it; bounds were set here for any values at or beyond the usual limits of such assays
# RUN PARAMETERS: source organism: Rickettsia bellii OSU 85-389
OBSERVABLE: Kd

Request: Reported Kd, sequence `AKIALAVYK` : ____
Result: ≥ 20 µM

---

# TARGET SYSTEM: HLA-B*44:03
# TEST DETAILS: IEDB peptide-MHC binding, purified MHC/competitive/fluorescence; bounds were set here for any values at or beyond the usual limits of such assays
# RUN PARAMETERS: source organism: Homo sapiens
pIC50: −log10 of the molar value.
OBSERVABLE: pIC50

Request: Query for HLA-B*44:03: what pIC50 does the record show for `SYMMDDLELI` ?
Result: ≤ 4.70

---

# TARGET SYSTEM: HLA-A*02:01
# TEST DETAILS: IEDB peptide-MHC binding, purified MHC/competitive/fluorescence; filed as Kd, often an IC50 or EC50 that approximates it; bounds were set here for any values at or beyond the usual limits of such assays
# RUN PARAMETERS: source organism: Yersinia pestis Nepal516
OBSERVABLE: pKd
The value called pKd is obtained by taking minus log10 of the concentration in mol/L.

Request: Query for HLA-A*02:01: what pKd does the record show for `YIYTRSFQM` ?
Result: 9.40

---

# TARGET SYSTEM: HLA-B*35:01
# TEST DETAILS: IEDB peptide-MHC binding, purified MHC/competitive/radioactivity; filed as Kd, often an IC50 or EC50 that approximates it; bounds were set here for any values at or beyond the usual limits of such assays
# RUN PARAMETERS: source organism: Dengue virus 1 Brazil/97-11/1997
OBSERVABLE: Kd (µM)
Could you give me the number in µM? Just the number is fine.

Request: Reported Kd, sequence `FTNMEVQLIR` : ____
Result: 14.6

---

# key: entry, value: IC50
# TARGET SYSTEM: HLA-A*03:01
# TEST DETAILS: IEDB peptide-MHC binding, purified MHC/competitive/fluorescence; bounds were set here for any values at or beyond the usual limits of such assays
# RUN PARAMETERS: source organism: Zaire ebolavirus
Could you give me the number in µM? Just the number is fine.

Request: Reported IC50, sequence `AVLYYHMMK` : ____
Result: 1.97

Request: One more sequence: `VKNEVNSFK`
Result: 47.1

Turning to the following sequence.
Request: Reported IC50, sequence `GTSNRTPTV` : ____
Result: 57.2
